Target: Cbl-b (Homo sapiens (Human))
Experiment: Cbl-b LCK Ub TR-FRET assay (Cbl-b Lck HTRF)
Format: biochemical
pIC50: −log10 of the molar value.
READOUT_KIND: pIC50

- COMPOUND: "Cn1cnnc1[C@H](F)C1(c2cccc(N3Cc4c(cc(CNC5(C)CCC5)cc4C(F)(F)F)C3=O)c2)CC(F)(F)C1 [Compound 464]"
  pIC50: 7.92

(I) CC(C)[C@H]1CN(C)CCN1Cc1cc2c(c(C(F)(F)F)c1)CN(c1cc(C3([C@H](F)c4nncn4C)CCC3)cc(NCC3CC3)n1)C2=O [Compound 279]
(II) Cn1cnnc1C(F)(F)C1(c2cccc(N3Cc4c(cc(CNC5(C)CCC5)cc4C(F)(F)F)C3=O)c2)COC1 [Compound 287]
### Prompt For the pair I and II , which entry has the numerically smaller recorded pIC50? Your choice should be expressed through its label.
### Response II
(II: 7.49, I: 8.10)

----------
Biological target: c-Cbl (Homo sapiens (Human))
Assay: C-Cbl LCK Ub TR-FRET assay (c-cbl Lck HTRF)
Type: biochemical
pIC50: −log10 of the molar value.
READOUT_KIND: pIC50

Here is how some molecules turned out for pIC50.
- STRUCTURE_AS_SMILES: "Cn1cnnc1[C@H](F)C1(c2cccc(N3Cc4c(cc(CN5CCC[C@H]5CO)cc4C(F)(F)F)C3=O)c2)COC1"
  pIC50: 6.41
- STRUCTURE_AS_SMILES: "Cn1cnnc1CC1(c2cc(-c3ccccc3)nc(N3Cc4c(cc(CNC5(C)CCC5)cc4C(F)(F)F)C3=O)c2)CCC1"
  pIC50: 8.12
- STRUCTURE_AS_SMILES: "CC(C)[C@H]1CN(C)CCN1Cc1cc2c(c(C(F)(F)F)c1)CN(c1cccc(C3([C@@H](F)c4n[nH]cc4C(F)(F)F)COC3)c1)C2=O"
  pIC50: 4.70
- STRUCTURE_AS_SMILES: "CC(C)Nc1cc(N2Cc3c(cc(CNC4(C)CCC4)cc3C(F)(F)F)C2=O)cc(C2(Cc3nncn3C)CCC2)c1"
  pIC50: 8.10

(I) Cn1cnnc1CC1(c2cc(OC3CCCC3)cc(N3Cc4c(cc(CNC5(C)CCC5)cc4C(F)(F)F)C3=O)c2)CC(F)(F)C1
(II) Cn1cnnc1CC1(c2cc(NC3CC=CC3)nc(N3Cc4c(cccc4C(F)(F)F)C3=O)c2)COC1
### Prompt Task for the reader: decide whether I or II has the larger pIC50. Write down the label of the entry you select.
### Response I

----------
Biological target: Cbl-b (Homo sapiens (Human), UniProt Q13191)
Sequence (Q13191 40-426): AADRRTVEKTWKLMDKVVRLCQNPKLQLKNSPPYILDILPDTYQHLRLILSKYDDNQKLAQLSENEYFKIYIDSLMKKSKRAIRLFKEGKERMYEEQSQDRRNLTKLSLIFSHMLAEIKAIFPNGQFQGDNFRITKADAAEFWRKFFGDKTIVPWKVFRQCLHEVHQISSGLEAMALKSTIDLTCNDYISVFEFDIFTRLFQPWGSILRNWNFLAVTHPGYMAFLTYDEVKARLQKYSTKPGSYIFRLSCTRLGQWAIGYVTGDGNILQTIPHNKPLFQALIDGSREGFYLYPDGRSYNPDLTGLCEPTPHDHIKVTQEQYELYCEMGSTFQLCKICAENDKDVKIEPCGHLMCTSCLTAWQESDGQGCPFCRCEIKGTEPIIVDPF
Experiment: Cbl-b LCK Ub TR-FRET assay (Cbl-b Lck HTRF)
Assay type: biochemical
READOUT_KIND: IC50 (nM)

Look over these answered cases.
- COMPOUND: "CC(C)[C@H]1CN(C)CCN1Cc1cc2c(c(C(F)(F)F)c1)CN(c1cc(C3(Cc4nncn4C)COC3)cc(OC3CCCC3)n1)C2=O [Compound 293]"
  IC50 [nM]: 5.5
- COMPOUND: "CC(C)[C@H]1CNCCN1Cc1cc2c(c(C(F)(F)F)c1)CN(c1cccc(C3([C@@H](F)c4nncn4C)COC3)c1)C2=O [Compound 96]"
  IC50 [nM]: 12
- COMPOUND: "Cn1cnnc1CC1(c2cccc(N3Cc4c(cc(CNC5(C)CCC5)cc4C(F)(F)F)C3=O)c2)CS(=O)(=O)C1 [Compound 242]"
  IC50 [nM]: 31

(I) Cn1cnnc1CC1(c2cccc(N3Cc4c(cc(CN5CC(C)(O)C5)cc4C(F)(F)F)C3=O)c2)CC(F)(F)C1 [Compound 17]
(II) Cn1cnnc1[C@@H](F)C1(c2cccc(N3Cc4c(cc(CN5CC(S(C)(=O)=O)C5)cc4C(F)(F)F)C3=O)c2)COC1 [Compound 164]
### Prompt Looking only at measured IC50, which entry is lower, I or II ? Mark your answer with the label of the selected entry.
### Response I
(I: 17 nM, II: 350 nM)

(P) CN1CCN(Cc2cc3c(c(C(F)(F)F)c2)CN(c2cccc(C4(Cc5nncn5C)CC(F)(F)C4)c2)C3=O)[C@@H](C2CC2)C1 [Compound 402]
(Q) CCN1CCN(Cc2cc3c(c(C(F)(F)F)c2)CN(c2cccc(C4([C@H](F)c5nncn5C)CC(F)(F)C4)c2)C3=O)[C@@H](C(C)C)C1 [Compound 461]
(R) Cn1cnnc1[C@@H](F)C1(c2cccc(NC(=O)c3cc(CN4CC(C)(CO)C4)cc(C4CC4)n3)c2)CC(F)(F)C1 [Compound 423]
### Prompt Descending sort on IC50 required. Output spec: a listing of the labels in the requested order.
### Response P, R, Q

(a) Cn1cnnc1CC1(c2cccc(N3Cc4c(cc(CNC5(C)CCC5)c(F)c4C(F)(F)F)C3=O)c2)CC(F)(F)C1 [Compound 244]
(b) CCNc1cc(N2Cc3c(cc(CNC4(C)CCC4)cc3C(F)(F)F)C2=O)cc(C2(Cc3nncn3C)CC(F)(F)C2)c1 [Compound 466]
### Prompt Which entry has a larger number for IC50, a or b ? Answer with the label corresponding to your selection.
### Response a

----------
Molecular target: UniProt Q13191
Assay: Cbl-b LCK Ub TR-FRET assay (Cbl-b Lck HTRF)
Type: biochemical
READOUT_KIND: IC50 (nM)

- MOLECULE: "Cn1cnnc1CC1(c2cc(NC3CCCC3O)nc(N3Cc4c(cccc4C(F)(F)F)C3=O)c2)COC1 (stereo not shown)"
  UNIT: "nM"
  NUMERIC_READOUT: 5000
- MOLECULE: "CO[C@H]1CCN(Cc2cc3c(c(C(F)(F)F)c2)CN(c2cccc(C4([C@H](F)c5nncn5C)COC4)c2)C3=O)C1"
  UNIT: "nM"
  NUMERIC_READOUT: 230

(A) COC[C@@H]1CCCN1Cc1cc2c(c(C(F)(F)F)c1)CN(c1cccc(C3([C@@H](F)c4nncn4C)COC3)c1)C2=O
(B) C#Cc1cccc2c1CN(c1cccc(C3([C@@H](F)c4nncn4C)COC3)c1)C2=O
### Prompt Could you tell me which of these two has the smaller IC50 figure? First: A Second: B Selection: enter the item's label.
### Response A
(A: 350 nM, B: 940 nM)

----------
Entries and their measured (fold-selectivity) follow.
Target: c-Cbl (Homo sapiens (Human))
Experiment: C-Cbl LCK Ub TR-FRET assay (c-cbl Lck HTRF)
Format: biochemical
Conditions: C-cbl Lck HTRF IC50 relative to Cbl-b Lck HTRF IC50

- STRUCTURE_AS_SMILES: "CC(C)[C@H]1CN(CC(F)(F)F)CCN1Cc1cc2c(c(C(F)(F)F)c1)CN(c1cccc(C3([C@@H](F)c4nncn4C)COC3)c1)C2=O"
  TESTED_SYSTEM: "c-Cbl (Homo sapiens (Human))"
  (fold-selectivity): "2.6x"

Now examine the next entry.
### Prompt GET /values?readout=(fold-selectivity)&item= Cn1cnnc1[C@@H](F)C1(c2cccc(N3Cc4c(cc(CN5CC6(C5)CS(=O)(=O)C6)cc4C(F)(F)F)C3=O)c2)COC1
### Response 2.6x

----------
Target: c-Cbl (Homo sapiens (Human), UniProt P22681)
Sequence (P22681 47-435): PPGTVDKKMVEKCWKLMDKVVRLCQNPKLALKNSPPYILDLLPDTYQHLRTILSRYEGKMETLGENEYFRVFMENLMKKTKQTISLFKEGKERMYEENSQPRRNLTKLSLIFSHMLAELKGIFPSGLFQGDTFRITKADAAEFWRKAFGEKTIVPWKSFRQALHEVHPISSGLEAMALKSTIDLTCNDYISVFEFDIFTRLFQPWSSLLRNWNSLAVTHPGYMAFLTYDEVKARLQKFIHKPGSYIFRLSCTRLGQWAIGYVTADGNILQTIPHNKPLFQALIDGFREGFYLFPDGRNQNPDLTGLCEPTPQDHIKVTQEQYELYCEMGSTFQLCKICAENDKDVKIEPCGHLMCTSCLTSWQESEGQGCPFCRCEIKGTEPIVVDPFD
Test: C-Cbl LCK Ub TR-FRET assay (c-cbl Lck HTRF)
Format: biochemical
READOUT_KIND: IC50 (nM)

Guide cases for IC50, answers given:
- COMPOUND: "Cn1cnnc1CC1(c2cc(NCC3CC3)nc(N3Cc4c(cc(CNC5(C)CCC5)cc4C(F)(F)F)C3=O)c2)CCC1"
  UNIT: "nM"
  IC50: 11
- COMPOUND: "Cc1cn[nH]c1C(F)C1(c2cccc(N3Cc4c(cc(CN5CCN(C)C[C@@H]5C(C)C)cc4C(F)(F)F)C3=O)c2)COC1 (stereo partly shown)"
  UNIT: "nM"
  IC50: 180
- COMPOUND: "Cn1cnnc1CC1(c2cc(NC3CCCC3)nc(N3Cc4c(cc(CNC5(C)CCC5)cc4C(F)(F)F)C3=O)c2)CCC1"
  UNIT: "nM"
  IC50: 33
- COMPOUND: "COC[C@@H]1CCCN1Cc1cc2c(c(C(F)(F)F)c1)CN(c1cccc(C3([C@@H](F)c4nncn4C)COC3)c1)C2=O"
  UNIT: "nM"
  IC50: 1200
- COMPOUND: "CC(C)CNc1cc(C2(Cc3nncn3C)CCC2)cc(N2Cc3c(cc(CNC4(C)CCC4)cc3C(F)(F)F)C2=O)n1"
  UNIT: "nM"
  IC50: 13
- COMPOUND: "C=CC1(O)CN(Cc2cc3c(c(C(F)(F)F)c2)CN(c2cccc(C4([C@@H](F)c5nncn5C)COC4)c2)C3=O)C1"
  UNIT: "nM"
  IC50: 99

(A) Cn1cnnc1C(F)(F)C1(c2cccc(N3Cc4c(cccc4C(F)(F)F)C3=O)c2)CC(F)(F)C1
(B) CC[C@@H]1CC[C@H](c2cc3c(c(C(F)(F)F)c2)CN(c2cccc(C4(Cc5nncn5C)CC(F)(F)C4)c2)C3=O)N1
(C) CO[C@H]1CCN(Cc2cc3c(c(C(F)(F)F)c2)CN(c2cccc(C4([C@H](F)c5nncn5C)COC4)c2)C3=O)C1
(D) CCNc1cc(N2Cc3c(cc(CNC4(C)CCC4)cc3C(F)(F)F)C2=O)cc(C2(Cc3nncn3C)COC2)c1
### Prompt Thanks in advance: please rank these 4 entries by IC50, highest to lowest. Output spec: a listing of the labels in the requested order.
### Response A, C, B, D
(A: 3400 nM, C: 470 nM, B: 39 nM, D: 8.6 nM)
